tested on: CAL-51; conditions: 72 h

{"columns": ["smilesStructure", "EC50, CellTiter-Blue viability [nM]"],
 "data": [
  ["COc1cc(Nc2ncc3c(n2)-c2ccc(Cl)cc2C(c2c(F)cccc2OC)=NC3)ccc1C(=O)O", 111],
  ["CN(C)C/C=C/C(=O)Nc1cc2c(Nc3ccc(F)c(Cl)c3)ncnc2cc1O[C@H]1CCOC1", 4750],
  ["CN1CC[C@H](c2c(O)cc(O)c3c(=O)cc(-c4ccccc4Cl)oc23)[C@H](O)C1", 185],
  ["C=CCNC1=C2C[C@@H](C)C[C@H](OC)[C@H](O)[C@@H](C)/C=C(\\C)[C@H](OC(N)=O)[C@@H](OC)/C=C\\C=C(/C)C(=O)NC(=CC1=O)C2=O", 269]
]}

----------
system: HCC1143; experiment: normalised viability (% of control), CellTiter-Blue; higher = more viable cells (100 = DMSO, 0 = benzethonium chloride kill control); conditions: incubation time: 72 h
# reported normalised viability; entries follow
measuredProperty: normalised viability (%)

{"columns": ["compound", "measuredProperty", "recordedResult"],
 "data": [
  ["Clc1ccc(C(c2ccccc2Cl)C(Cl)Cl)cc1 (centres undefined) [Mitotane] (1 nM)", "normalised viability", 98],
  ["CO[C@H]1C[C@@H]2CC[C@@H](C)[C@@](O)(O2)C(=O)C(=O)N2CCCC[C@H]2C(=O)O[C@H]([C@H](C)C[C@@H]2CC[C@@H](OC(=O)C(C)(CO)CO)[C@H](OC)C2)CC(=O)[C@H](C)/C=C(\\C)[C@@H](O)[C@@H](OC)C(=O)[C@H](C)C[C@H](C)/C=C/C=C/C=C/1C [Temsirolimus] (0.1 nM)", "normalised viability", 94.1],
  ["CN1CCC(COc2cnc(-c3cccc(Cn4nc(-c5cccc(C#N)c5)ccc4=O)c3)nc2)CC1 (1 nM)", "normalised viability", 110],
  ["CN1CC[C@H](c2c(O)cc(O)c3c(=O)cc(-c4ccccc4Cl)oc23)[C@H](O)C1 [Alvocidib] (1 nM)", "normalised viability", 78.5]
]}

----------
tested on: HCC1937; assay: drug sensitivity score (DSS), CellTiter-Glo (DSS (AUC-based score)); higher = stronger drug effect (viability inhibition or cytotoxicity); extreme values may be limits of the assay; conditions: incubation time: 72 h
Decision: drug sensitivity score compared against 4; not below it gives Yes, below it gives No.

{"columns": ["smilesStructure", "targetDesc", "classLabel"],
 "data": [
  ["COc1cccc2cc(-c3nc([C@H]4CC[C@H](C(=O)O)CC4)n4ncnc(N)c34)[nH]c12", "HCC1937", "No"],
  ["Cc1c2oc3c(C)ccc(C(=O)N[C@@H]4C(=O)N[C@H](C(C)C)C(=O)N5CCC[C@H]5C(=O)N(C)CC(=O)N(C)[C@@H](C(C)C)C(=O)O[C@@H]4C)c3nc-2c(C(=O)N[C@@H]2C(=O)N[C@H](C(C)C)C(=O)N3CCC[C@H]3C(=O)N(C)CC(=O)N(C)[C@@H](C(C)C)C(=O)O[C@@H]2C)c(N)c1=O", "HCC1937", "Yes"],
  ["CN(C)C/C=C/C(=O)Nc1cc2c(Nc3ccc(F)c(Cl)c3)ncnc2cc1O[C@H]1CCOC1", "HCC1937", "No"],
  ["S=c1[nH]cnc2nc[nH]c12", "HCC1937", "Yes"],
  ["C[C@]1(c2nc3c(C(N)=O)cccc3[nH]2)CCCN1", "HCC1937", "No"],
  ["CN1CC[C@H](c2c(O)cc(O)c3c(=O)cc(-c4ccccc4Cl)oc23)[C@H](O)C1", "HCC1937", "Yes"]
]}

----------
test system: CAL-148; test: normalised response (% of control), CellTox Green; higher = less cell death (100 = DMSO, 0 = benzethonium chloride kill control); details: incubation time: 72 h
Each record here notes measured normalised response.

{"columns": ["compound", "normalised response [%]"],
 "data": [
  ["C=CC[C@@H]1/C=C(\\C)C[C@H](C)C[C@H](OC)[C@H]2O[C@@](O)(C(=O)C(=O)N3CCCC[C@H]3C(=O)O[C@H](/C(C)=C/[C@@H]3CC[C@@H](O)[C@H](OC)C3)[C@H](C)[C@@H](O)CC1=O)[C@H](C)C[C@@H]2OC [Tacrolimus] (10000 nM)", 95.8],
  ["CCN1CCN(c2ccc(Nc3cc(N(C)C(=O)Nc4c(Cl)c(OC)cc(OC)c4Cl)ncn3)cc2)CC1 [NVP-BGJ398] (100 nM)", 104],
  ["CN(C)C/C=C/C(=O)Nc1cc2c(Nc3ccc(F)c(Cl)c3)ncnc2cc1O[C@H]1CCOC1 [Afatinib] (100 nM)", 102],
  ["C[C@]1(c2nc3c(C(N)=O)cccc3[nH]2)CCCN1 [Veliparib] (100 nM)", 103],
  ["Cc1c2oc3c(C)ccc(C(=O)N[C@@H]4C(=O)N[C@H](C(C)C)C(=O)N5CCC[C@H]5C(=O)N(C)CC(=O)N(C)[C@@H](C(C)C)C(=O)O[C@@H]4C)c3nc-2c(C(=O)N[C@@H]2C(=O)N[C@H](C(C)C)C(=O)N3CCC[C@H]3C(=O)N(C)CC(=O)N(C)[C@@H](C(C)C)C(=O)O[C@@H]2C)c(N)c1=O [Dactinomycin] (100 nM)", 23.9]
]}

----------
tested on: HDQ-P1; assay: normalised viability (% of control), CellTiter-Blue; higher = more viable cells (about 100 = DMSO control); conditions: 10 nM; incubation time: 72 h

{"columns": ["molecule", "normalised viability / %"],
 "data": [
  ["COc1cccc2cc(-c3nc([C@H]4CC[C@H](C(=O)O)CC4)n4ncnc(N)c34)[nH]c12", 78.5],
  ["Nc1ccn([C@@H]2O[C@H](CO)[C@@H](O)[C@@H]2O)c(=O)n1", 94.6],
  ["CN1CC[C@H](c2c(O)cc(O)c3c(=O)cc(-c4ccccc4Cl)oc23)[C@H](O)C1", 106],
  ["Clc1ccc(C(c2ccccc2Cl)C(Cl)Cl)cc1 (configuration not stated)", 99.1],
  ["OC[C@H]1O[C@@H](n2cnc3c2N=CNC[C@H]3O)C[C@@H]1O", 106],
  ["C=CCNC1=C2C[C@@H](C)C[C@H](OC)[C@H](O)[C@@H](C)/C=C(\\C)[C@H](OC(N)=O)[C@@H](OC)/C=C\\C=C(/C)C(=O)NC(=CC1=O)C2=O", 93.5],
  ["C=CC[C@@H]1/C=C(\\C)C[C@H](C)C[C@H](OC)[C@H]2O[C@@](O)(C(=O)C(=O)N3CCCC[C@H]3C(=O)O[C@H](/C(C)=C/[C@@H]3CC[C@@H](O)[C@H](OC)C3)[C@H](C)[C@@H](O)CC1=O)[C@H](C)C[C@@H]2OC", 119]
]}

----------
tested on: SK-BR-3; assay: normalised viability (% of control), CellTiter-Blue; higher = more viable cells (about 100 = DMSO control); conditions: 100 nM; incubation time: 72 h
measuredProperty: normalised viability (%)

{"columns": ["molecule", "measuredProperty", "recordedResult"],
 "data": [
  ["Cc1ccc(F)c(NC(=O)Nc2ccc(-c3cccc4[nH]nc(N)c34)cc2)c1 [Linifanib]", "normalised viability", 112],
  ["Nc1nc(Cl)nc2c1ncn2[C@H]1C[C@H](O)[C@@H](CO)O1 [Cladribine]", "normalised viability", 99.7],
  ["CO[C@H]1C[C@@H]2CC[C@@H](C)[C@@](O)(O2)C(=O)C(=O)N2CCCC[C@H]2C(=O)O[C@H]([C@H](C)C[C@@H]2CC[C@@H](OC(=O)C(C)(CO)CO)[C@H](OC)C2)CC(=O)[C@H](C)/C=C(\\C)[C@@H](O)[C@@H](OC)C(=O)[C@H](C)C[C@H](C)/C=C/C=C/C=C/1C [Temsirolimus]", "normalised viability", 54],
  ["COc1cccc2c1C(=O)c1c(O)c3c(c(O)c1C2=O)C[C@@](O)(C(=O)CO)C[C@@H]3O[C@H]1C[C@H](N)[C@H](O)[C@H](C)O1 [Doxorubicin]", "normalised viability", 41.3]
]}

----------
test system: CAL-51; conditions: 72 h
Entries and their measured EC50, CellTiter-Glo follow.

{"columns": ["smilesStructure", "targetDesc", "unitAbbreviation", "EC50, CellTiter-Glo"],
 "data": [
  ["C=CCNC1=C2C[C@@H](C)C[C@H](OC)[C@H](O)[C@@H](C)/C=C(\\C)[C@H](OC(N)=O)[C@@H](OC)/C=C\\C=C(/C)C(=O)NC(=CC1=O)C2=O", "CAL-51", "nM", 78.2],
  ["Nc1ccn([C@@H]2O[C@H](CO)[C@@H](O)[C@@H]2O)c(=O)n1", "CAL-51", "nM", 544],
  ["CC[C@]1(O)C[C@@H]2CN(CCc3c([nH]c4ccccc34)[C@@](C(=O)OC)(c3cc4c(cc3OC)N(C)[C@H]3[C@@](O)(C(=O)OC)[C@H](OC(C)=O)[C@]5(CC)C=CCN6CC[C@]43[C@@H]65)C2)C1", "CAL-51", "nM", 8.68],
  ["COc1cccc2cc(-c3nc([C@H]4CC[C@H](C(=O)O)CC4)n4ncnc(N)c34)[nH]c12", "CAL-51", "nM", 2220],
  ["COc1cc(Nc2ncc3c(n2)-c2ccc(Cl)cc2C(c2c(F)cccc2OC)=NC3)ccc1C(=O)O", "CAL-51", "nM", 76.4],
  ["CO[C@H]1C[C@@H]2CC[C@@H](C)[C@@](O)(O2)C(=O)C(=O)N2CCCC[C@H]2C(=O)O[C@H]([C@H](C)C[C@@H]2CC[C@@H](OC(=O)C(C)(CO)CO)[C@H](OC)C2)CC(=O)[C@H](C)/C=C(\\C)[C@@H](O)[C@@H](OC)C(=O)[C@H](C)C[C@H](C)/C=C/C=C/C=C/1C", "CAL-51", "nM", 0.65]
]}
